PROCEDURE_DETAILS: Antipoliferative activity against human PC3 cells after 48 hrs by MTT assay
Format: functional, cell-based
COND: PC-3, 48 h
Consider the following compounds; for each one, report its IC50.

Would you be so kind as to report IC50 for each listed record?
1. CCC(CC)(c1ccc(OCC(=O)C(C)(C)C)c(C)c1)c1ccc(OCC(=O)C(C)(C)C)c(C)c1
2. CCn1c(C(=O)NCCN)ccc1C(CC)(CC)c1ccc(OCC(O)C(C)(C)C)c(C)c1 (stereo not given)
3. CCn1c(C(=O)NCCN(C)C)ccc1C(CC)(CC)c1ccc(OCC(=O)C(C)(C)C)c(C)c1
4. CCn1c(C(=O)NCCCN2CCOCC2)ccc1C(CC)(CC)c1ccc(OCC(O)C(C)(C)C)c(C)c1 (stereo not given)
5. CCn1c(C(=O)NCCCN(C)C)ccc1C(CC)(CC)c1ccc(OCC(=O)C(C)(C)C)c(C)c1

Outgoing:
1: > 50000 nM; 2: 940 nM; 3: 2300 nM; 4: 7.9 nM; 5: 1600 nM
